Method summary: S. cerevisiae RM11-1a growth modifiers, primary screen, strain RM11-1a, OD600, basal, 24 h (AID 1177);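 note: cultures grown under basal conditions with no added stressor; test concentration not given here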
Assay context: OD600, 24 h, higher = more signal, called active from +8 up or from −8 down
Recorded z-score determines the group label, using Low: < -0.3; Mid: ≥ -0.3 and < 0.9; High: ≥ 0.9

[
  {
    "Molecule": "CCOC(=O)[C@H](Cc1ccccc1)NC(=O)CCC1CC(OC(=O)NCc2ccc3c(c2)OCO3)CC2(CCCC(COC(=O)NCc3ccccc3)O2)O1 (some centres undefined)",
    "Class": "Mid"
  },
  {
    "Molecule": "O=C1[C@H]2[C@H]3[C@H](O)[C@H](O)CC(=NO[C@@H]4O[C@H](CO)[C@@H](O)[C@H](O)[C@H]4O)[C@H]3CC[C@H]2C(=O)N1C1CCCCC1",
    "Class": "Low"
  },
  {
    "Molecule": "CC(=O)O[C@H]1C2=C(C(=O)[C@@H]3O[C@@H]31)[C@H]1C(C)O[C@@H]2[C@@]23C(=O)[C@@H]4O[C@@H]4[C@@H](O)C2=CO[C@H](C)[C@@H]13 (some centres undefined)",
    "Class": "Mid"
  },
  {
    "Molecule": "CCCNC(=O)[C@@H]1c2ccccc2C(=O)N(Cc2ccccc2Cl)[C@H]1c1ccc(CO)cc1",
    "Class": "Mid"
  }
]

Which bin, given its z-score, does CCCNC(=O)[C@@H]1c2ccccc2C(=O)N(c2ccc(C)cn2)[C@H]1c1ccc(CO)cc1 occupy?
Low

Which bin, given its z-score, does COCCOC(=O)N1C(=O)[C@@]2(c3cc(C#CC4(O)CCCCCC4)ccc31)[C@H](C(=O)N1CCN(c3ncccn3)CC1)[C@H]1C(=O)O[C@H](c3ccccc3)[C@H](c3ccccc3)N1[C@@H]2c1ccc(OCCO)cc1 occupy?
High

Which bin, given its z-score, does CC(C)c1ccc(NN2C(C(O)c3ccc4c(c3)OCO4)C=CC3C(=O)N(c4ccccc4)C(=O)C32)cc1 (centres undefined) occupy?
Mid

Which bin, given its z-score, does C=CC[C@@H]1C=C[C@H](ON=C[C@@H](OC)[C@H](C)C=CCC(=O)OC)[C@@H](CO)O1 occupy?
High

Which bin, given its z-score, does COCCCNC(=O)[C@@]1(CCS(=O)(=O)c2ccccc2)N=C(c2ccc(OCCCO)cc2)O[C@H]1c1ccccc1 occupy?
Mid

###

Method summary: binders of probe aHhip on microarray, primary screen, stem cell growth factor project, biochemical, small-molecule microarray, fluorescence 635/667 (AID 1087);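 note: score merges spot fluorescence at 667nm with spot signal to noise ratio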
Assay context: higher = more signal
Could you label it true (1) if measured composite z-score is -0.03 or higher, and false (0) otherwise?

Here's what some known entries look like.
[
  {
    "Compound": "CC1CC/C=C\\[C@H]2OC34C=CCN(Cn5nnc6ccccc65)C(=O)[C@H]3N(CCO)C(=O)[C@@H]4C2C(=O)O1 (some centres not stated)",
    "Class": "false (0)"
  },
  {
    "Compound": "CC(C)=CCCC(C)=CCON=C1[C@H]2CCn3c(=O)n(Cc4cc5c(cc4Cl)OCO5)c(=O)n3[C@H]2[C@H](O)[C@@H]2O[C@H]12",
    "Class": "false (0)"
  },
  {
    "Compound": "COCCOC(=O)N1C(=O)[C@@]2(c3cc(C#CCNC(N)=O)ccc31)[C@H](c1ccccc1OCCO)N1[C@H](c3ccccc3)[C@H](c3ccccc3)OC(=O)[C@H]1[C@@H]2C(=O)N1CCN(c2ncccn2)CC1",
    "Class": "false (0)"
  },
  {
    "Compound": "COc1ccc(O[C@H]2C=C[C@@H](c3ccccc3)O[C@@H]2COC(=O)CCC(C)=NO[C@@H](C)c2cc(-c3c(C)cc(C)cc3C)no2)cc1",
    "Class": "false (0)"
  },
  {
    "Compound": "CO[C@@H]1COC(=O)CC=C[C@@H](C)[C@@H]2C=C[C@H](O)[C@@H](COC(=O)[C@H](C)NC(=O)CC=C[C@H]1C)O2",
    "Class": "true (1)"
  },
  {
    "Compound": "C#C[C@@H]1Oc2ccccc2S(=O)(=O)N2CCC[C@H]12",
    "Class": "false (0)"
  }
]

Attention now shifts to the item below.
API: above_or_equal(metric=composite z-score, cutoff=-0.03) for item CCN1C(=O)[C@H]2[C@H]3[C@H](O)[C@H](O)CC(=NOCC=C(C)CCC=C(C)C)[C@H]3CC[C@H]2C1=O
true (1)

###

Method summary: small-molecule microarray binders of probe aLefty2, primary screen, biochemical, biotinylated probe, 635/667 nm fluorescence (AID 1094);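 note: score merges spot fluorescence near 667 nm with spot signal-to-noise ratio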
Assay context: higher = more signal
Could you label it true if measured composite z-score is -0.1 or higher, and false otherwise?

[
  {
    "Smiles notation": "COC(=O)[C@@H]1CC[C@H](C)[C@@H](c2ccc(C)cc2)N1C(=O)c1ccc(C=NOC[C@@H](O)COCc2ccco2)cc1",
    "Class": "true"
  },
  {
    "Smiles notation": "C#C[C@@H](CC)O[Si](C#Cc1ccc(Oc2ccccc2)cc1)(C(C)C)C(C)C",
    "Class": "false"
  },
  {
    "Smiles notation": "CCCCc1nc2c(c3c1C[C@H](C)OC3)CN(CCC(C)C)CC2",
    "Class": "false"
  },
  {
    "Smiles notation": "CC(C)OC(=O)C=C1C[C@@H](c2ccc(C#N)cc2)O[C@@H](c2ccc(C#N)cc2)O1",
    "Class": "true"
  }
]

API: above_or_equal(metric=composite z-score, cutoff=-0.1) for item CC(=O)C[C@H](O)[C@@H](NC(=O)OC(C)(C)C)C(C)C
false

API: above_or_equal(metric=composite z-score, cutoff=-0.1) for item CC[C@@H](c1ccccc1)n1c(=O)n2n(c1=O)[C@H]1[C@H](O)[C@@H]3O[C@@H]3C(=NOCC=C(C)CCC=C(C)C)[C@H]1CC2
false

API: above_or_equal(metric=composite z-score, cutoff=-0.1) for item COc1cccc([C@H]2Oc3ccc(OC)cc3C(=NO[C@H](C)c3cn([C@@H]4COC[C@H]4O)nn3)[C@@H]2O)c1
false

API: above_or_equal(metric=composite z-score, cutoff=-0.1) for item O=C1[C@H]2[C@H]3[C@H](O)[C@H](O)CC(=NOC[C@@H](O)COCc4ccco4)[C@@H]3CC[C@H]2C(=O)N1c1ccc(F)cc1F
false

###

Target or system: NADPH oxidase 5 (Homo sapiens)
Method summary: NOX5-dependent H2O2 signal modulators, primary screen, NOX inhibitor project, cell-based, HEK293-NOX5, Amplex Red fluorescence (AID 1161)
Assay context: HEK293-NOX5, ionomycin, 45 min, higher = more signal
Could you label it Yes if measured z-score is -0.07 or higher, and No otherwise?

Here's what some known entries look like.
[
  {
    "Molecule": "O=C1[C@H]2[C@H]3[C@H](O)[C@H](O)CC(=NO[C@@H]4O[C@H](CO)[C@@H](O)[C@H](O)[C@H]4O)[C@@H]3CC[C@H]2C(=O)N1Cc1ccc2c(c1)OCO2",
    "Target or system": "NADPH oxidase 5 (Homo sapiens)",
    "Class": "No"
  },
  {
    "Molecule": "CC(C)=CCCC(C)=CCON=C1[C@H]2CCn3c(=O)n(C)c(=O)n3[C@H]2[C@H](O)[C@@H]2O[C@H]12",
    "Target or system": "NADPH oxidase 5 (Homo sapiens)",
    "Class": "Yes"
  },
  {
    "Molecule": "COC(=O)[C@@H]1CCCN1C(=O)[C@@H](C)CO",
    "Target or system": "NADPH oxidase 5 (Homo sapiens)",
    "Class": "No"
  },
  {
    "Molecule": "CN(C)c1ccc(C(O)C2C=CC3C(=O)N(c4ccccc4)C(=O)C3N2Nc2ccccc2F)cc1 (configuration not stated)",
    "Target or system": "NADPH oxidase 5 (Homo sapiens)",
    "Class": "No"
  },
  {
    "Molecule": "COc1ccc(COC(=O)NN=C2C[C@@H](O)[C@@H](O)[C@@H]3[C@@H]4C(=O)N(Cc5ccc6c(c5)OCO6)C(=O)[C@@H]4CC[C@@H]23)cc1",
    "Target or system": "NADPH oxidase 5 (Homo sapiens)",
    "Class": "Yes"
  }
]

Attention now shifts to the item below.
API: above_or_equal(metric=z-score, cutoff=-0.07) for item CCN1C(=O)[C@H]2[C@H]3[C@H](O)[C@H](O)CC(=NOCC=C(C)CCC=C(C)C)[C@H]3CC[C@H]2C1=O
No

###

Method summary: P. aeruginosa biofilm formation inhibitors, primary screen, strain PAO1, LB-PBS medium, absorbance 600 nm (AID 1176); note: test concentration not given here
Assay context: P. aeruginosa PAO1 growth/biofilm, A600, 12 h; higher = more signal
Listed below: z-score values for each entry.
Answer using only a numeral; do not append any unit.

[
  {
    "Molecule": "COc1cccc([C@H]2Oc3ccc(OC)cc3C(=NO[C@H](C)c3cn([C@@H]4COC[C@H]4O)nn3)[C@@H]2O)c1",
    "z-score": -0.409
  },
  {
    "Molecule": "O=C1[C@H]2[C@H]3[C@H](O)[C@H](O)CC(=NOC[C@@H](O)COCc4ccco4)[C@@H]3CC[C@H]2C(=O)N1c1ccc(F)cc1F",
    "z-score": -1.45
  },
  {
    "Molecule": "CO[C@@H]1COC(=O)CC=C[C@@H](C)[C@H](OC)COC(=O)[C@H](COCc2ccccc2)NC(=O)CC=C[C@H]1C",
    "z-score": -0.225
  },
  {
    "Molecule": "C[C@@H]1C=CCC(=O)OC[C@H](C)C(=O)OC[C@H]2O[C@H]1C=C[C@H]2O",
    "z-score": -0.814
  },
  {
    "Molecule": "O=C1O[C@@H](c2ccccc2)[C@@H](c2ccccc2)N2[C@@H](c3ccc(OCCO)cc3)[C@]3(C(=O)Nc4ccccc43)[C@@H](C(=O)N3CCN(c4ncccn4)CC3)[C@H]12",
    "z-score": 1.47
  }
]

The measured z-score associated with CC(C)(C)N1CC=CC23O[C@@H]4C=CCCOC(=O)C4[C@H]2C(=O)N(CCCCCO)[C@@H]3C1=O (stereo partly drawn) reads -0.36

The measured z-score associated with CCOC(=O)[C@H](Cc1ccccc1)NC(=O)CCC1CC(OC(=O)NCc2ccc3c(c2)OCO3)CC2(CCCC(COC(=O)NCc3cccc(C(F)(F)F)c3)O2)O1 (stereo partly drawn) reads -0.813

The measured z-score associated with CN(C)C(=O)[C@@]1(Cc2ccccc2)N=C(c2ccc(OCCCO)cc2)O[C@H]1c1ccccc1CN=[N+]=[N-] reads 0.535

The measured z-score associated with O=C1[C@H]2[C@H]3[C@H](O)[C@H](O)CC(=NOC[C@@H](O)COCc4ccco4)[C@H]3CC[C@H]2C(=O)N1c1cccc(Oc2ccccc2)c1 reads 0.741

The measured z-score associated with COC(=O)[C@@]1(Cc2ccc(F)cc2)[C@@H]2C(=CC(=O)[C@H]2CC(=O)C(=O)N(C)C)CN1C(=O)c1ccccc1 reads 0.784

The measured z-score associated with COC(=O)[C@]1(CO)N=C(c2ccc(OCCCO)cc2)O[C@@H]1c1ccccc1N=[N+]=[N-] reads 0.205

The measured z-score associated with COC(=O)CC=C[C@H](C)[C@@H](OCc1ccccc1Br)C(C)C reads 0.274

The measured z-score associated with CCCNC(=O)OC[C@H]1O[C@H](CCON=CC[C@@H]2C=C[C@H](OC(C)=O)[C@@H](COC(C)=O)O2)C=C[C@@H]1Oc1ccc(OC)cc1 reads 0.0282

The measured z-score associated with CC(=O)OC[C@H]1O[C@H](CC=NOC[C@@H](C)[C@H](OCc2ccccc2)C(C)C)C=C[C@@H]1OC(C)=O reads 0.0738

The measured z-score associated with COc1ccc(O[C@H]2C=C[C@@H](c3ccccc3)O[C@@H]2COC(=O)CCC(C)=NOC[C@@H](C)[C@H](OCc2ccccc2)C(C)C)cc1 reads -0.598

The measured z-score associated with CC(CCN1CCc2nc(-c3ccccc3)c(-c3ccccc3)cc2C1)=NOC(C)CN1CCCCc2nc(C)c(C)cc21 (stereo not drawn) reads 0.347

The measured z-score associated with CCOC(=O)[C@H](Cc1ccccc1)NC(=O)CCC1CC(OC(=O)NCc2ccc3c(c2)OCO3)CC2(CCCC(COC(=O)NCC3CCCCC3)O2)O1 (stereo partly drawn) reads -0.695

The measured z-score associated with O=C(NN=C1C[C@@H](O)[C@@H](O)[C@@H]2[C@@H]3C(=O)N(c4cccc(Oc5ccccc5)c4)C(=O)[C@@H]3CC[C@H]12)OCc1ccccc1 reads -0.708

The measured z-score associated with CCCC[C@@H]1C[C@H]1[C@@H](NS(=O)(=O)c1cccc2cccnc12)c1ccc(-c2ccccc2)cc1 reads 0.411
